System: LG0703-F948-PDC complex spheroid viability
Assay: Anticancer human tumor LG0703-F948-PDC patient-derived lung adenocarcinoma cell line growth inhibition [RAS]; active = viability on the fitted dose curve at most 10% of control; inactive = the rest
Conditions: second compound 0.00949 µM; first compound 10 µM
Labels: active, inactive

# compound, group
records = [
    ("C[C@@H](NC(=O)c1ncnc(N)c1Cl)c1ncc(C(=O)Nc2cc(C(F)(F)F)c(Cl)cn2)s1 + CCn1c(-c2cccnc2C(C)OC)c2c3cc(ccc31)N1CCOC(CC(NC(=O)C(C(C)C)N(C)C(=O)C3(F)CCN(C(=O)C#CC(C)(C)N(C)C)CC3)C(=O)N3CCCC(N3)C(=O)OCC(C)(C)C2)C1", "inactive"),
    ("CC(=O)OC12COC1CC(O)C1(C)C(=O)C(O)C3=C(C)C(OC(=O)C(O)C(NC(=O)OC(C)(C)C)c4ccccc4)CC(O)(C(OC(=O)c4ccccc4)C21)C3(C)C (configuration not stated) + CCn1c(-c2cc(N3CCN(C)CC3)cnc2C(C)OC)c2c3cc(ccc31)-c1csc(n1)CC(NC(=O)C1CC1C)C(=O)N1CCCC(N1)C(=O)OCC(C)(C)C2", "inactive"),
    ("CC(=O)OC12COC1CC(O)C1(C)C(=O)C(O)C3=C(C)C(OC(=O)C(O)C(NC(=O)OC(C)(C)C)c4ccccc4)CC(O)(C(OC(=O)c4ccccc4)C21)C3(C)C (configuration not stated) + CCn1c(-c2cccnc2C(C)OC)c2c3cc(ccc31)N1CCOC(CC(NC(=O)C(C(C)C)N(C)C(=O)C3(F)CCN(C(=O)C#CC(C)(C)N(C)C)CC3)C(=O)N3CCCC(N3)C(=O)OCC(C)(C)C2)C1", "inactive"),
    ("CC1(O)CCCC1n1c(=O)c(C(F)F)cc2cnc(NC3CCN(S(C)(=O)=O)CC3)nc21 (configuration not stated) + CCn1c(-c2cc(N3CCN(C)CC3)cnc2C(C)OC)c2c3cc(ccc31)-c1csc(n1)CC(NC(=O)C1CC1C)C(=O)N1CCCC(N1)C(=O)OCC(C)(C)C2", "inactive"),
    ("C[C@@H](NC(=O)c1ncnc(N)c1Cl)c1ncc(C(=O)Nc2cc(C(F)(F)F)c(Cl)cn2)s1 + CCn1c(-c2cc(N3CCN(C)CC3)cnc2C(C)OC)c2c3cc(ccc31)-c1csc(n1)CC(NC(=O)C1CC1C)C(=O)N1CCCC(N1)C(=O)OCC(C)(C)C2", "inactive"),
    ("CC(Nc1ccc2c(c1)OCCn1cc(N3C(=O)OCC3C(F)F)nc1-2)C(N)=O (configuration not stated) + CCn1c(-c2cccnc2C(C)OC)c2c3cc(ccc31)N1CCOC(CC(NC(=O)C(C(C)C)N(C)C(=O)C3(F)CCN(C(=O)C#CC(C)(C)N(C)C)CC3)C(=O)N3CCCC(N3)C(=O)OCC(C)(C)C2)C1", "inactive"),
    ("CCC(CC)c1cc(NC2CCC(N)C2)n2nccc2n1 (configuration not stated) + CCn1c(-c2cccnc2C(C)OC)c2c3cc(ccc31)N1CCOC(CC(NC(=O)C(C(C)C)N(C)C(=O)C3(F)CCN(C(=O)C#CC(C)(C)N(C)C)CC3)C(=O)N3CCCC(N3)C(=O)OCC(C)(C)C2)C1", "active"),
]

====

Listed below: viability, T/C values for each entry.
Test system: LG0703-F948-PDC complex spheroid viability
Test: Anticancer human tumor LG0703-F948-PDC cell line growth inhibition [RAS];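 note: spheroids exposed to agents for 7 days; 100% = DMSO vehicle wells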
Conditions: second compound 1 µM; first compound 0.1 µM; hits give low values
measured parameter: viability, T/C

# molecule, observed measurement
rows = [
    ("NC1c2ccccc2OC12CCN(c1cnc3c(N4CCCc5ncccc54)n[nH]c3n1)CC2 (stereo not given) + C=CC(=O)N1CCN(c2nc(OCC3CCCN3C)nc3c(F)c(-c4nc(N)cc(C)c4C(F)(F)F)c(Cl)cc23)C(C)C1", "30.1%"),
    ("NC1c2ccccc2OC12CCN(c1cnc3c(N4CCCc5ncccc54)n[nH]c3n1)CC2 (stereo not given) + C#Cc1c(F)ccc2cc(O)cc(-c3ncc4c(N5CC6CCC(C5)N6)nc(OCC56CCCN5CC(F)C6)nc4c3F)c12", "21.9%"),
    ("Nc1ccn(C2OC(CO)C(O)C2(F)F)c(=O)n1 (stereo not given) + C=CC(=O)N1CCN(c2nc(OCC3CCCN3C)nc3c(F)c(-c4nc(N)cc(C)c4C(F)(F)F)c(Cl)cc23)C(C)C1", "30.1%"),
    ("O=C(c1ccc(F)c(F)c1Nc1ccc(I)cc1F)N1CC(O)([C@@H]2CCCCN2)C1 + C=CC(=O)N1CCN(c2nc(OCC3CCCN3C)nc3c(F)c(-c4nc(N)cc(C)c4C(F)(F)F)c(Cl)cc23)C(C)C1", "30.9%"),
    ("CC(=O)OC12COC1CC(O)C1(C)C(=O)C(O)C3=C(C)C(OC(=O)C(O)C(NC(=O)OC(C)(C)C)c4ccccc4)CC(O)(C(OC(=O)c4ccccc4)C21)C3(C)C (stereo not given) + C#Cc1c(F)ccc2cc(O)cc(-c3ncc4c(N5CC6CCC(C5)N6)nc(OCC56CCCN5CC(F)C6)nc4c3F)c12", "26.4%"),
    ("C=CC(=O)N1CCN(c2nc(OCC3CCCN3C)nc3c(F)c(-c4nc(N)cc(C)c4C(F)(F)F)c(Cl)cc23)C(C)C1 (stereo not given) + C#Cc1c(F)ccc2cc(O)cc(-c3ncc4c(N5CC6CCC(C5)N6)nc(OCC56CCCN5CC(F)C6)nc4c3F)c12", "66.2%"),
    ("Nc1ccn(C2OC(CO)C(O)C2(F)F)c(=O)n1 (stereo not given) + C#Cc1c(F)ccc2cc(O)cc(-c3ncc4c(N5CC6CCC(C5)N6)nc(OCC56CCCN5CC(F)C6)nc4c3F)c12", "23.8%"),
    ("CC1(O)CCCC1n1c(=O)c(C(F)F)cc2cnc(NC3CCN(S(C)(=O)=O)CC3)nc21 (stereo not given) + C#Cc1c(F)ccc2cc(O)cc(-c3ncc4c(N5CC6CCC(C5)N6)nc(OCC56CCCN5CC(F)C6)nc4c3F)c12", "82.7%"),
    ("O=C(c1ccc(F)c(F)c1Nc1ccc(I)cc1F)N1CC(O)([C@@H]2CCCCN2)C1 + C#Cc1c(F)ccc2cc(O)cc(-c3ncc4c(N5CC6CCC(C5)N6)nc(OCC56CCCN5CC(F)C6)nc4c3F)c12", "24.4%"),
    ("CC(C)NCC(C(=O)N1CCN(c2ncnc3c2C(C)CC3O)CC1)c1ccc(Cl)cc1 (stereo not given) + C#Cc1c(F)ccc2cc(O)cc(-c3ncc4c(N5CC6CCC(C5)N6)nc(OCC56CCCN5CC(F)C6)nc4c3F)c12", "63.6%"),
    ("CC(Nc1ccc2c(c1)OCCn1cc(N3C(=O)OCC3C(F)F)nc1-2)C(N)=O (stereo not given) + C#Cc1c(F)ccc2cc(O)cc(-c3ncc4c(N5CC6CCC(C5)N6)nc(OCC56CCCN5CC(F)C6)nc4c3F)c12", "71.2%"),
    ("CC(C)n1nc(-c2ccc3oc(N)nc3c2)c2c(N)ncnc21 + C=CC(=O)N1CCN(c2nc(OCC3CCCN3C)nc3c(F)c(-c4nc(N)cc(C)c4C(F)(F)F)c(Cl)cc23)C(C)C1", "6.36%"),
    ("Cc1nc(N2CCC3(CC2)COC(C)C3N)c(CO)nc1Sc1ccnc(N)c1Cl (stereo not given) + C#Cc1c(F)ccc2cc(O)cc(-c3ncc4c(N5CC6CCC(C5)N6)nc(OCC56CCCN5CC(F)C6)nc4c3F)c12", "51.7%"),
    ("CC(=O)OC12COC1CC(O)C1(C)C(=O)C(O)C3=C(C)C(OC(=O)C(O)C(NC(=O)OC(C)(C)C)c4ccccc4)CC(O)(C(OC(=O)c4ccccc4)C21)C3(C)C (stereo not given) + C=CC(=O)N1CCN(c2nc(OCC3CCCN3C)nc3c(F)c(-c4nc(N)cc(C)c4C(F)(F)F)c(Cl)cc23)C(C)C1", "27.3%"),
    ("C=CC(=O)Nc1cc(Nc2nccc(-c3cn(C)c4ccccc34)n2)c(OC)cc1N(C)CCN(C)C + C=CC(=O)N1CCN(c2nc(OCC3CCCN3C)nc3c(F)c(-c4nc(N)cc(C)c4C(F)(F)F)c(Cl)cc23)C(C)C1", "10.2%"),
    ("CC(C)n1nc(-c2ccc3oc(N)nc3c2)c2c(N)ncnc21 + C#Cc1c(F)ccc2cc(O)cc(-c3ncc4c(N5CC6CCC(C5)N6)nc(OCC56CCCN5CC(F)C6)nc4c3F)c12", "5.14%"),
    ("CC1(O)CCCC1n1c(=O)c(C(F)F)cc2cnc(NC3CCN(S(C)(=O)=O)CC3)nc21 (stereo not given) + C=CC(=O)N1CCN(c2nc(OCC3CCCN3C)nc3c(F)c(-c4nc(N)cc(C)c4C(F)(F)F)c(Cl)cc23)C(C)C1", "105%"),
    ("CCN1CCN(Cc2ccc(Nc3ncc(F)c(-c4cc(F)c5nc(C)n(C(C)C)c5c4)n3)nc2)CC1 + C=CC(=O)N1CCN(c2nc(OCC3CCCN3C)nc3c(F)c(-c4nc(N)cc(C)c4C(F)(F)F)c(Cl)cc23)C(C)C1", "81.2%"),
    ("CCC(CC)c1cc(NC2CCC(N)C2)n2nccc2n1 (stereo not given) + C#Cc1c(F)ccc2cc(O)cc(-c3ncc4c(N5CC6CCC(C5)N6)nc(OCC56CCCN5CC(F)C6)nc4c3F)c12", "69.8%"),
    ("C=CC(=O)Nc1cc(Nc2nccc(-c3cn(C)c4ccccc34)n2)c(OC)cc1N(C)CCN(C)C + C#Cc1c(F)ccc2cc(O)cc(-c3ncc4c(N5CC6CCC(C5)N6)nc(OCC56CCCN5CC(F)C6)nc4c3F)c12", "10.2%"),
]
